# Lookup of reported Percentage inhibition of (3H)-(+)-MK801 binding at 10 μM keyed by entry
Test system: (+)-MK801 binding site of the ionotropic NMDA receptor
Experiment Summary: (3H)-(+)-MK801 receptor bonding test on rat cerebral membrane homogenates
Condition Details: 10 μmol/l compound; 1 nmol/l (3H)-(+)-MK801; rat brain membrane homogenate; triple determinations; hydrochloride, 10 µM
Counter-ions that a name gives are not always drawn.
Test Readout: Percentage inhibition of (3H)-(+)-MK801 binding at 10 μM (%)

Compound: Cc1ccccc1C(C1CCCCC1(O)CCc1ccccc1Cl)N(C)C (single isomer, unassigned; (+)) [Example 49, hydrochloride]
Tested On: (+)-MK801 binding site of the ionotropic NMDA receptor
Recorded Value: 93
--
Compound: CN(C)C(c1ccccc1Cl)C1CCCCC1(O)CCc1ccccc1F.Cl (single isomer, unassigned; (-)) [Example 52]
Tested On: (+)-MK801 binding site of the ionotropic NMDA receptor
Recorded Value: 105
--
Compound: Cc1ccccc1C(C1CCCCC1(O)CCc1cccc(Cl)c1)N(C)C.Cl (centres unmarked) [Example 16]
Tested On: (+)-MK801 binding site of the ionotropic NMDA receptor
Recorded Value: 92
--
Compound: CN(C)C(c1ccccc1)C1CCCCC1(O)CCCc1ccccc1.Cl (single isomer, unassigned; (+)) [Example 51]
Tested On: (+)-MK801 binding site of the ionotropic NMDA receptor
Recorded Value: 80
--
Compound: Cc1ccccc1C(C1CCCCC1(O)CCc1cccc(Cl)c1)N(C)C.Cl (centres unmarked) [Example 26]
Tested On: (+)-MK801 binding site of the ionotropic NMDA receptor
Recorded Value: 89
